Source listed as patent US20080300243A1.

tested.system: VR1 (Homo sapiens, UniProt Q8NER1)
measurement.notes: Calcium uptake assay, low pH (proton) stimulus
Assay type: cell-based
Set-up: expressed in transfected cells; host or cells: T-REx HEK 293 (Invitrogen), pcDNA5/TO vector
study.conditions: HEK293; 0.3 μM compound; low pH agonist; HEK 293 cells expressing hVR1; read-out: Low pH % Inhib. @ 0.3 μM
Sequence (Q8NER1 whole entry): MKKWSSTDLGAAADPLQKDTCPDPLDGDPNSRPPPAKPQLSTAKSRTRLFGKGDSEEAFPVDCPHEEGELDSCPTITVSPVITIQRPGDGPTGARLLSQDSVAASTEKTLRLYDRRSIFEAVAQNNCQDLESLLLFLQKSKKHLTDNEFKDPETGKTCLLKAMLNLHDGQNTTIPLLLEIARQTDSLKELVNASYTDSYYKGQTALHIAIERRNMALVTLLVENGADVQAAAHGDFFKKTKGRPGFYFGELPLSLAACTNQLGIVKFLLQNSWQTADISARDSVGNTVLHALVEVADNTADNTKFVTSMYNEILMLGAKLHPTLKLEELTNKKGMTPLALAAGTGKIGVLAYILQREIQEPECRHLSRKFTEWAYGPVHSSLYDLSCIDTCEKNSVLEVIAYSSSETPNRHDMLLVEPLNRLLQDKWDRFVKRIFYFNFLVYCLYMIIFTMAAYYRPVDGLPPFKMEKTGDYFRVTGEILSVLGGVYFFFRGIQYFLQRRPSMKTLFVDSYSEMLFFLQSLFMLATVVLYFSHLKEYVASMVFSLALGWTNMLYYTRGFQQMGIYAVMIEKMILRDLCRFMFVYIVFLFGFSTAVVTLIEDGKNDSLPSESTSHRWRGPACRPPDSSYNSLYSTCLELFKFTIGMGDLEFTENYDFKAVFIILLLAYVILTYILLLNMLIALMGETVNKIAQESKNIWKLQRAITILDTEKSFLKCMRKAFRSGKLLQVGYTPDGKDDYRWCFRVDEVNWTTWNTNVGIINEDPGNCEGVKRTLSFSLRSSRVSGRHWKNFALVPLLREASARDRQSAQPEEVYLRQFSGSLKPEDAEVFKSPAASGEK
recorded.metric: inhibition at 0.3 µM (%)

Before answering, review these 3 worked examples.
- O=C(Nc1ccc2c(c1)OCC(CO)N2)c1ccc(C#CC2CCCC2)cc1F (stereo not drawn): 96
- Cc1cc(C#CC(C)(C)C)ccc1C(=O)Nc1ccc2[nH]c(=O)oc2c1: 59
- Cc1cc2c(NC(=O)c3ccc(/C=C/C(F)(F)F)cc3)cccc2cn1: 90

[I] CC(C)(C)/C=C/c1ccc(C(=O)Nc2ccc3c(c2)OCCO3)cc1
[II] CC(C)(C)C#Cc1ccc(C(=O)Nc2cccc3cnccc23)nc1
Of the pair I and II , name the member with the lesser recorded inhibition at 0.3 µM. // caller expects the label of the chosen entry
II
(II: 21%, I: 83%)

---

tested.system: VR1 (Homo sapiens, UniProt Q8NER1)
measurement.notes: Calcium uptake assay, low pH (proton) stimulus
Assay type: cell-based
Parameters: expressed in transfected cells; host or cells: T-REx HEK 293 (Invitrogen), pcDNA5/TO vector
study.conditions: HEK293; 0.3 μM compound; low pH agonist; HEK 293 cells expressing hVR1; read-out: Low pH % Inhib. @ 0.3 μM
recorded.metric: inhibition at 0.3 µM (%)

• CC(C)(C)C#Cc1ccc(C(=O)Nc2ccc3c(c2)OC[C@@H](CO)N3)c(F)c1 = 108
• CC(C)(C)C#Cc1ccc(C(=O)Nc2cnc3ccccc3c2)c(F)c1 = 97
• CC(C)(C)C#Cc1cc(F)c(C(=O)Nc2cccc3cnccc23)c(F)c1 = 99
• CC(C)(C)C#Cc1ccc(C(=O)Nc2cccc3cnccc23)c(Cl)c1 = 95

---

tested.system: VR1 (Homo sapiens, UniProt Q8NER1)
measurement.notes: Acid stimulation assay (FDSS 6000)
Type: cell-based
Design: host or cells: unspecified cell suspension
study.conditions: final assay buffer pH5.8, 15 min pre-incubation
Sequence (Q8NER1 whole entry, species assumed): as the sequence (Q8NER1 whole entry) above
pIC50: −log10 of the molar value.
recorded.metric: pIC50

In the examples that follow, each entry is paired with its recorded pIC50.
* Cc1cc(C#CC(C)(C)C)ccc1C(=O)Nc1ccc2c(c1)OCC(CO)N2 (stereo not drawn) | 8.15
* O=C(Nc1ccc2c(c1)OC[C@H](CO)N2)c1ccc(/C=C/C(F)(F)F)cc1F | 8.52
* C/C(=C\C(F)(F)F)c1ccc(C(=O)Nc2ccc3c(c2)OCCN3)cc1 | 8.52
* O=C(Nc1ccc2c(c1)OCC(CO)N2)c1ccc(C#CC2CC2)cc1F (stereo not drawn) | 8.30
* CC(C)(C)C#Cc1ccc(C(=O)Nc2ccc3c(c2)OC[C@H](CO)N3)c(F)c1 | 8.52

[P] Cc1cc(/C=C/C(F)(F)F)ccc1C(=O)Nc1cnc2ccccc2c1
[Q] Cc1cc(/C=C/C(F)(F)F)ccc1C(=O)Nc1ccc2c(c1)OCCN2
Please state the entry with greater pIC50 among P and Q . // caller expects the label of the chosen entry
P
(P: 8.52, Q: 8.30)

---

measurement.notes: Half-life in human liver microsomes (HLM)
Type: in vitro ADME
study.conditions: human, human liver microsomes (HLM, HL101), pH 7.4; 1 μM compound, 0.78 mg/mL HLM, 37° C., NADPH
recorded.metric: half-life at 1 μM (h)

• COc1cc(/C=C/C(F)(F)F)ccc1C(=O)Nc1ccc2c(c1)OCCO2 = 1.88

[A] Cc1cc(C#CC(C)(C)C)ccc1C(=O)Nc1cnc2ccccc2c1
[B] O=C(Nc1ccc2c(c1)OC[C@@H](CO)O2)c1ccc(C#CC2CC2)cc1
[C] C/C(=C\c1ccc(C(=O)Nc2ccc3c(c2)OCCN3)cc1)C(F)(F)F
[D] Cc1cc(/C=C/C(F)(F)F)ccc1C(=O)Nc1ccc2c(c1)OCC(CO)N2 (stereo not drawn)
Number of compounds to sort: 4. Sort criterion: half-life at 1 μM, ascending. Answer format: list of labels, ordered as asked.
B, C, A, D
(B: 0.28 h, C: 0.65 h, A: 1.02 h, D: 1.97 h)

[P] O=C(Nc1ccc2c(c1)OCC(CO)N2)c1ccc(C#CC2CCCC2)cc1F (stereo not drawn)
[Q] Cc1cc(C#CC2CC2)ccc1C(=O)Nc1ccc2c(c1)OCC(CO)N2 (stereo not drawn)
Rank P against Q by their half-life at 1 μM values and give the higher one. Please indicate the selected item by its label.
P

[1] CC(C)(C)C#Cc1ccc(C(=O)Nc2cnc3ccccc3c2)c(Cl)c1
[2] O=C(Nc1ccc2c(c1)OCC(CO)N2)c1ccc(/C=C/C(F)(F)F)cc1 (stereo not drawn)
From the recorded data, which exceeds the other in half-life at 1 μM: 1 or 2 ? Give the label under which the chosen entry appears.
1

---

tested.system: VR1 (Homo sapiens, UniProt Q8NER1)
measurement.notes: Calcium uptake assay, low pH (proton) stimulus
Type: cell-based
Parameters: expressed in transfected cells; host or cells: T-REx HEK 293 (Invitrogen), pcDNA5/TO vector
study.conditions: HEK293; 0.3 μM compound; low pH agonist; HEK 293 cells expressing hVR1; read-out: Low pH % Inhib. @ 0.3 μM
recorded.metric: inhibition at 0.3 µM (%)

Study these solved cases before continuing.
• CC(C)(C)C#Cc1ccc(C(=O)Nc2ccc3c(c2)OCCN3)c(Cl)c1 [Compound 146] = 93
• O=C(Nc1cccc2cnccc12)c1ccc(C#CC(F)(F)F)cc1 [Compound 45] = 99

[a] CC(C)(C)C#Cc1ccc(C(=O)Nc2ccc3c(c2)OCC(CO)O3)c(F)c1 (stereo not drawn) [Compound 154]
[b] CC(C)/C=C/c1ccc(C(=O)Nc2ccc3c(c2)Cc2ccccc2-3)cc1 [Compound 13]
Which of the two gives a bigger number for inhibition at 0.3 µM: a or b ? Give the label of your selection.
a
(a: 95%, b: 11%)

---

tested.system: VR1 (Homo sapiens, UniProt Q8NER1)
measurement.notes: Calcium uptake assay, low pH (proton) stimulus
Format: cell-based
Parameters: expressed in transfected cells; host or cells: T-REx HEK 293 (Invitrogen), pcDNA5/TO vector
study.conditions: HEK293; 0.3 μM compound; low pH agonist; HEK 293 cells expressing hVR1; read-out: Low pH % Inhib. @ 0.3 μM
recorded.metric: inhibition at 0.3 µM (%)

• O=C(Nc1ccc2c(c1)OC[C@H](CO)N2)c1ccc(/C=C/C(F)(F)F)cc1F [Compound 193] = 103
• O=C(Nc1ccc2c(c1)OCC(CO)O2)c1ccc(/C=C/C(F)(F)F)cc1 (stereo not drawn) [Compound 97] = 101
• O=C(Nc1ccc2sc(CO)nc2c1)c1ccc(/C=C/C(F)(F)F)cc1 [Compound 55] = 101
• C/C(=C\c1ccc(C(=O)Nc2ccc3c(c2)OCCN3)cc1)C(F)(F)F [Compound 93] = 105
• CC(C)(C)C#Cc1ccc(C(=O)Nc2ccc3c(c2)OCO3)cn1 [Compound 26] = 104

[1] Cn1ccc2cc(NC(=O)c3ccc(/C=C/C(C)(C)C)cc3)ccc21 [Compound 42]
[2] CCn1c2ccccc2c2cc(NC(=O)c3ccc(/C(C)=C\C(C)(C)C)cc3)ccc21 [Compound 19]
Compare the recorded inhibition at 0.3 µM of 1 and 2 ; state which is larger. Kindly state the label of the option you pick.
1

---

tested.system: VR1 (Homo sapiens, UniProt Q8NER1)
measurement.notes: Acid stimulation assay (FDSS 6000)
study.conditions: final assay buffer pH5.8, 15 min pre-incubation
pIC50: −log10 of the molar value.
recorded.metric: pIC50

Previously resolved entries follow.
- Cc1cc(C#CC(C)(C)C)ccc1C(=O)Nc1ccc2scnc2c1: 8.52
- COc1c(C#CC(C)(C)C)ccc(C(=O)Nc2cccc3cnccc23)c1F: 8.40
- Cc1cc(/C=C/C(F)(F)F)ccc1C(=O)Nc1cnc2c(c1)OCC(CO)N2 (centres unmarked): 8.52
- CC(C)(C)C#Cc1ccc(C(=O)Nc2ccc3c(c2)OC[C@@H](CO)N3)c(F)c1: 8.52
- Cc1cc(C#CC(C)(C)C)ccc1C(=O)Nc1ccc2sc(CO)nc2c1: 8.52

[I] CC(C)(C)C#Cc1ccc(C(=O)Nc2ccc3c(c2)OCC(CO)N3)c(F)c1 (centres unmarked)
[II] O=C(Nc1cccc2cnccc12)c1ccc(C#CC(F)(F)F)cc1
[III] O=C(Nc1ccc2c(c1)OC[C@@H](CO)O2)c1ccc(/C=C/C(F)(F)F)cc1
Put the molecules in ascending order of pIC50. Reply with the item labels sorted in the order that was asked for.
III, I, II
(III: 8.30, I: 8.52, II: 9.00)

---

tested.system: UniProt Q8NER1
measurement.notes: Calcium uptake assay, low pH (proton) stimulus
Format: cell-based
Set-up: expressed in transfected cells; host or cells: T-REx HEK 293 (Invitrogen), pcDNA5/TO vector
study.conditions: HEK293; 0.3 μM compound; low pH agonist; HEK 293 cells expressing hVR1; read-out: Low pH % Inhib. @ 0.3 μM
recorded.metric: inhibition at 0.3 µM (%)

Previously resolved entries follow.
- O=C(Nc1ccc2c(c1)OCCN2)c1ccc(C#CC2CC2)cc1Cl [Compound 147]: 88
- Cc1cc(C#CC2CC2)ccc1C(=O)Nc1ccc2c(c1)OCC(CO)N2 (centres unmarked) [Compound 124]: 112
- C/C(=C\c1ccc(C(=O)Nc2cccc3cnccc23)cc1)C(F)(F)F [Compound 89]: 92

[P] O=C(Nc1ccc2c(c1)OCCN2)c1c(F)cc(C#CC2CC2)cc1F [Compound 130]
[Q] Cc1cc(/C=C/C(F)(F)F)ccc1C(=O)Nc1cccc2c(Cl)nccc12 [Compound 200]
Which record would sort first by descending inhibition at 0.3 µM, P or Q ? Answer = label.
P
(P: 104%, Q: 55%)
